Target: T1, Rat RGMa-His (rat) (UniProt D4A188)
T1 sequence: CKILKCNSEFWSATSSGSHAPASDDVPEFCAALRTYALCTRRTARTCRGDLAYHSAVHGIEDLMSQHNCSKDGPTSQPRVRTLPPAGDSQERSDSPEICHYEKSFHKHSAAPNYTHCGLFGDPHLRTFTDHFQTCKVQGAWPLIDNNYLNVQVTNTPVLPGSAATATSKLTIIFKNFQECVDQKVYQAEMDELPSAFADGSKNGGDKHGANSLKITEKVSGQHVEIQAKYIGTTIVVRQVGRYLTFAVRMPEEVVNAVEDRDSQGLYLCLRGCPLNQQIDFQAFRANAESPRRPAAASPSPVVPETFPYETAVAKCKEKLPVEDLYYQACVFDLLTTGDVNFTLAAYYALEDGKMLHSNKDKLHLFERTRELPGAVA
Test: BIAcore
pKd: −log10 of the molar value.
Lab note: compare pKd against 8. Equal or greater, write class 1. Smaller, write class 0.

Query block: pKd >= 8 for AE12-1-F (antibody, V domains shown) VH: EVQLVQSGAEVKKPGASVKVSCKASGYTFTSHGISWVRQAPGQGLDWMGWISPYSGNTNYAQKLQGRVTMTTDTSTSTAYMELSSLRSEDTAVYYCARVGSGPYYYMDVWGQGTLVTVSS VL: QSALTQPRSVSGSPGQSVTISCTGTSSSVGDSIYVSWYQQHPGKAPKLMLYDVTKRPSGVPDRFSGSKSGNTASLTISGLQAEDEADYYCFSYAGTDTLFGGGTKVTVL ?
Result block: class 1

Query block: # bool: pKd of AE12-1 (antibody, V domains shown) VH: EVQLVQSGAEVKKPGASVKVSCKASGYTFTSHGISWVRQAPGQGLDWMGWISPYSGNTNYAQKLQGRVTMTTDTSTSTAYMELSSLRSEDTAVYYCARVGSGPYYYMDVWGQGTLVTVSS VL: QSALTQPRSVSGSPGQSVTISCTGTSSSVGDSIYVSWYQQHPGKAPKLMLYDVTKRPSGVPDRFSGSKSGNTASLTISGLQAEDEADYYCCSYAGTDTLFGGGTKVTVL >= 8
Result block: class 0

Query block: Quick check: does AE12-1-Y (antibody, V domains shown) VH: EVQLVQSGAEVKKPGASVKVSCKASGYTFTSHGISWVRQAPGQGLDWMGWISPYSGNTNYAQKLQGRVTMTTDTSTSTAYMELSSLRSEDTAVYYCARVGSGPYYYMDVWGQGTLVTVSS VL: QSALTQPRSVSGSPGQSVTISCTGTSSSVGDSIYVSWYQQHPGKAPKLMLYDVTKRPSGVPDRFSGSKSGNTASLTISGLQAEDEADYYCYSYAGTDTLFGGGTKVTVL have pKd greater than or equal to 8?
Result block: class 1
